The values you see were collected from PubChem BioAssay (NCI).

Overview of reported growth across a group of molecules:
System: MOLT-4 leukemia
Assay: NCI-60 one-dose screen, 48 h (100 = growth as untreated, 0 = no growth, -100 = all killed)
Conditions: 10 µM unless noted
This is part of a sample that, as a whole, favours compounds with a hit. Of some 83,000 tested, about 20% had one in any assay.
Just the number in %, nothing appended.

These recorded examples may help you get a feel for the data.
(Q) Return growth (reported value) for this molecule: Clc1ccc2[nH]cc(-c3nn4cc(-c5ccncc5)nc4s3)c2c1
(A) 81.8

(Q) Output measured growth for this item: O=C(N/N=C/c1cc2ccccc2nc1Cl)c1cc(-c2nc3ccccc3[nH]2)nc2ccccc12
(A) 82.2

Then there is this molecule:
(Q) Answer with reported growth of COC(=O)c1ccc(NC2=C(Cl)C(=O)c3nc(C)ccc3C2=O)cc1
(A) 19.8
